system name: serotonin transporter (Macaca mulatta, UniProt Q9MYX0)
Construct: Each caudate-putamen was homogenized and used separately for dopamine and serotonin transporter assays; from tissue; host or cells: caudate-putamen membranes of adult cynomolgus or rhesus monkey brain
Sequence (Q9MYX0 whole entry): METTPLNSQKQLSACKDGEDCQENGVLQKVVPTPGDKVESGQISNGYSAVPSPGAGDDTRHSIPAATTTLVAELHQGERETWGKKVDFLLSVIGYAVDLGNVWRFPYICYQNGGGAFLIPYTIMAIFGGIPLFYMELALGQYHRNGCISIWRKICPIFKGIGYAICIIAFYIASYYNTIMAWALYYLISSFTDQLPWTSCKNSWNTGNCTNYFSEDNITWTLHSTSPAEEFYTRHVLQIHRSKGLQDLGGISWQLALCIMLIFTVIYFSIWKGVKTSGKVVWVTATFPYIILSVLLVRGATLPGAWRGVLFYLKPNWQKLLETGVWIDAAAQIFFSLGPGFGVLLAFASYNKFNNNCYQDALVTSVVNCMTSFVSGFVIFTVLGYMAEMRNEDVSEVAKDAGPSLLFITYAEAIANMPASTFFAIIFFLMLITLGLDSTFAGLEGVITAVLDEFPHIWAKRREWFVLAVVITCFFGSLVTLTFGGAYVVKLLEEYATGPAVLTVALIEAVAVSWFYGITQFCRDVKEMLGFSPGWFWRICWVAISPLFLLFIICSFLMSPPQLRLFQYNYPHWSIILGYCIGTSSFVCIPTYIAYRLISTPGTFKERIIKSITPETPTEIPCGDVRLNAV
assay explanation: biochemical
Type: binding
quantity: IC50

1. COC(=O)C(c1ccccc1)C1CCCCN1 (stereo not shown) [Methylphenidate, reference compound] : > 100 µM

* * *

system name: serotonin transporter (Macaca mulatta)
Construct: Each caudate-putamen was homogenized and used separately for dopamine and serotonin transporter assays; from tissue; host or cells: caudate-putamen membranes of adult cynomolgus or rhesus monkey brain
assay explanation: biochemical
Type: binding
particulars: binding to the SERT; read-out: SERT IC50
quantity: IC50 (µM)

1) COC(=O)C(c1ccc2ccccc2c1)C1CCCCO1 (stereo not shown) [Naphthyl mixture] : 5
